assay-context: buffer; pH 7.4; 200.0 µM
Consider the following compounds and their measured log10 of solubility kinetic readings.
endpoint: log10 of solubility kinetic (log10 of the value in µg/mL)

1) CC(C)c1ccc(C(=O)NC(=S)Nc2ccc3[nH]c(=O)[nH]c3c2)cc1 | -0.30
2) O=C(/C=C/c1ccccc1)OCCN=C1NS(=O)(=O)c2ccccc21 | 0.93
3) Cc1ccc2cc(CCl)c(Cl)nc2c1 | 0.57
4) COc1ccc2c(CC(=O)Nc3ccc(N4CCOCC4)cc3)coc2c1 | 0.73
5) Cl.Nc1cccc2c3c(oc12)CCCC3 | 0.87
6) COc1ccc(NC(=O)CS(=O)(=O)c2ccccc2Cl)cc1 | 1.64
7) O=C(CSc1cccc[n+]1[O-])c1ccc(Cl)cc1 | 1.60
8) COc1ccc(Cl)cc1N1C(=O)CC(N2CCN(S(=O)(=O)c3ccccc3F)CC2)C1=O (stereo not drawn) | 1.58
9) COc1nccc(NCc2ccccc2)c1C#N | 1.30
10) CS(=O)(=O)Nc1ccccc1C(=O)NCCSc1ccccc1 | 1.71
11) COc1ccc(-n2c(=S)[nH]c3sc(-c4ccccc4)cc3c2=O)c(OC)c1 | 0.23
12) CC1CN(C(=O)COC(=O)c2c(Cl)cccc2Cl)CC(C)O1 (stereo not drawn) | 1.69
13) COc1ccccc1/C=C/C(=O)OCC(=O)NC1CCCCCCC1 | 0.87
14) CN(C)c1nc(N)c([N+](=O)[O-])c(N2CCCCCC2)n1 | 1.60
15) COc1cccc(N2CCN(C(=O)c3ccc(-c4ccccc4)cc3)CC2)c1 | -0.10
16) CC(C)(C)c1csc(NC(=O)c2ccc(Br)o2)n1 | 1.20
17) CC(C)c1ccccc1NC(=O)c1ccc2ncsc2c1 | 1.32
18) Fc1cccc(/C=C2\CCCC3=C2NC(=S)NC3c2cccc(F)c2)c1 (stereo not drawn) | 0.85
19) CC(OC(=O)CC1CCCC1)C(=O)Nc1ccc(Cl)cn1 (stereo not drawn) | 1.49
20) O=C(/C=C/c1ccccc1Cl)Nc1cccnc1 | 1.43
21) CCOC(=O)c1cccc(NC(=S)NC(=O)c2cccnc2)c1 | 0.91
22) CCN(CC)C(=O)C12CC3CC(CC(Br)(C3)C1)C2 | 1.51
23) NS(=O)(=O)c1cccc(NC(=O)COC(=O)c2cc([N+](=O)[O-])ccc2N2CCCC2)c1 | 0.99
24) O=C1CC(N2CCC(c3nc4ccccc4o3)CC2)C(=O)N1 (stereo not drawn) | 1.63
25) Cc1ccc(S(=O)(=O)N2CCN(c3ccccc3)CC2)s1 | 0.36
26) Cc1ccc(NC(=O)COC(=O)CCc2ccccc2)cc1S(=O)(=O)N1CCOCC1 | 1.39
27) CC(C)n1c(CN2CCN(Cc3ccccc3)CC2)nc2ccccc21 | 1.54
28) COc1cc(C(=O)Nc2cc(OC)c(OC)c(OC)c2)ccc1OCc1c(C)noc1C | 0.46

* * *

assay-context: buffer; pH 7.4; 200.0 µM
endpoint: solubility kinetic (µg/mL)

1. Cn1c(=O)n(Cc2ccc(Br)cc2)c2ccccc21 | 25.7
2. O=C1C2=C(CCCC2)C(=O)N1CNc1ccccc1 | 33
3. O=C(NC1CC1)c1sc2ccccc2c1Cl | 1.6

* * *

assay-context: buffer; pH 7.4; 200.0 µM
Examples of compounds with documented solubility kinetic follow.
endpoint: solubility kinetic (µg/mL)

1. Cc1ccc(OCC(=O)NCCNC(=O)c2ccncc2)cc1 | 45.1
2. Cc1cccc(N2CCN(C(=O)c3ccc4[nH]c(C)c(C)c4c3)CC2)c1C | 4.2
3. COc1cc(Cl)c(C)cc1NC(=O)Cc1cccs1 | 1
4. O=C(Nc1cccc(S(=O)(=O)Nc2ccccc2F)c1)c1ccco1 | 11.1
5. COc1ccc(OC)c(CN2CCN(C(=O)CNC(=O)c3ccccc3F)CC2)c1 | 59.9
6. O=C(c1cc2cc(F)ccc2[nH]1)N1CCc2ccccc2C1 | 0.9
7. Cc1ccc(NC(=O)c2oc3ccccc3c2C)nc1 | 6.4
